Recorded values, source paper PMC8539251.

SYSTEM_UNDER_TEST: muscle-type nicotinic acetylcholine receptor (nAChR) (Torpedo marmorata, UniProt P02711+Q6S3H8+Q6S3H9+Q6S3I0)
Construct: purified native nAChR reconstituted in asolectin lipids, microtransplanted to Xenopus oocytes; with β1, γ and δ nAChR subunits (heteropentamer 2α1, β1, δ, γ)
Sequence (P02711 25-461): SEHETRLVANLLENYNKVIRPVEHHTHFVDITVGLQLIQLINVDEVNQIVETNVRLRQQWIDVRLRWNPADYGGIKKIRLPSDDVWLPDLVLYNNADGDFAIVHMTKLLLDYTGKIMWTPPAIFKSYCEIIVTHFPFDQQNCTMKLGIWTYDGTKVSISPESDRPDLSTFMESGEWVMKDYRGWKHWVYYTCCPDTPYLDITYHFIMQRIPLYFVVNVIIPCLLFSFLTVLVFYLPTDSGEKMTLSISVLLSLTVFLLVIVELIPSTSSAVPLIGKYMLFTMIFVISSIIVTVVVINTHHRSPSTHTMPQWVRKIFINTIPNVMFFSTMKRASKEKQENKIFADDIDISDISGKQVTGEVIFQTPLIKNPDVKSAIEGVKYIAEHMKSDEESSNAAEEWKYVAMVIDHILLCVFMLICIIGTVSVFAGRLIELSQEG
Sequence (Q6S3I0 25-493): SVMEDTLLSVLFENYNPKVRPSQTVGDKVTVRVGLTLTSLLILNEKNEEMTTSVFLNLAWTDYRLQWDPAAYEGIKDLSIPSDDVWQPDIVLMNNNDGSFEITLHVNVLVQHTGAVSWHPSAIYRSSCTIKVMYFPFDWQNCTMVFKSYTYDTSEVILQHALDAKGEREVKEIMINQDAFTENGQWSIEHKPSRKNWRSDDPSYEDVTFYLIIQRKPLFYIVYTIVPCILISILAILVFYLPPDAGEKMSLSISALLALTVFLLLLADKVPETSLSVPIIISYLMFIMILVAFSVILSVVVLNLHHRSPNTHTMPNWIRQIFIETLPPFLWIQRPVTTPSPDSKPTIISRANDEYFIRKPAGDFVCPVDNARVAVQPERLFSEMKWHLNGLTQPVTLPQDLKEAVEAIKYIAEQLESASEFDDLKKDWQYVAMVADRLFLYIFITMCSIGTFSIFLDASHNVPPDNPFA
Sequence (Q6S3H9 18-505): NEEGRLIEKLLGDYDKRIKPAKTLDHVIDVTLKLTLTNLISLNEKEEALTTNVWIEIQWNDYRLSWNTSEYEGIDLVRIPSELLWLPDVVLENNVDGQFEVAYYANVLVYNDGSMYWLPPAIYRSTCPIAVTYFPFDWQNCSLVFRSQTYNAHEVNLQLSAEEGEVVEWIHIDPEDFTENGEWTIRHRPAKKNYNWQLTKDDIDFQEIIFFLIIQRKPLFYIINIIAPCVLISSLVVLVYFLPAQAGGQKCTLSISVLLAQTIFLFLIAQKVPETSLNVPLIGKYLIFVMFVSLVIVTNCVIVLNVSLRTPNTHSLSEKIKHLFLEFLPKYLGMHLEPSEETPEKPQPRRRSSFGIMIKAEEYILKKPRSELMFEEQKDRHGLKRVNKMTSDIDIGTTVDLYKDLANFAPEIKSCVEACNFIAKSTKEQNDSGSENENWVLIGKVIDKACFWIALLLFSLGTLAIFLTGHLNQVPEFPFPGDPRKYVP
Sequence (Q6S3H8 22-522): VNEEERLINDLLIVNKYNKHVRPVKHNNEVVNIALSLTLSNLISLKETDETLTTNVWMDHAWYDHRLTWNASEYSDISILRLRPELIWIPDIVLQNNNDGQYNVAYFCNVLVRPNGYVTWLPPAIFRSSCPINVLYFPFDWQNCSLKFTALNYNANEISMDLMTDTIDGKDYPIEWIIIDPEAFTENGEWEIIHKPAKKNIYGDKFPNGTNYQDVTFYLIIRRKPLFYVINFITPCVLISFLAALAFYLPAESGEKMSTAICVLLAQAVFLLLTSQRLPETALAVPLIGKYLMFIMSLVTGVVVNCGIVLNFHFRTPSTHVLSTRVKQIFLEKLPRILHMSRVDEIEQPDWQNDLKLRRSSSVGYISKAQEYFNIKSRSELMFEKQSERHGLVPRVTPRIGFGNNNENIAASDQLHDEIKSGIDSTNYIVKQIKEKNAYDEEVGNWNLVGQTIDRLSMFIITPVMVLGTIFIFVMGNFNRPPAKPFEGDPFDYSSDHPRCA
EXPERIMENT: two-electrode voltage clamp in Xenopus oocytes, agonist concentration-response
PROPERTY_MEASURED: EC50 (µM)
Give bare numbers, in µM.

Return reported EC50; argument: CC(=O)OCC[N+](C)(C)C
31

* * *

SYSTEM_UNDER_TEST: muscle-type nicotinic acetylcholine receptor (nAChR) (Torpedo marmorata, UniProt P02711+Q6S3H8+Q6S3H9+Q6S3I0)
Construct: purified native nAChR reconstituted in asolectin lipids, microtransplanted to Xenopus oocytes; with β1, γ and δ nAChR subunits (heteropentamer 2α1, β1, δ, γ)
EXPERIMENT: two-electrode voltage clamp in Xenopus oocytes, inhibition of […] ACh-elicited currents (peak; steady-state IC50 […])
PROPERTY_MEASURED: IC50 (nM)
Numbers only, in nM.

Return reported IC50; argument: C[C@H]1CC[C@@H]2N(C1)C[C@H]1[C@@H]3C[C@H]4[C@@H](C[C@H](O)[C@H]5C[C@@H](O)CC[C@@]54C)[C@@H]3CC[C@@H]1[C@]2(C)O
2900
